Molecular target: T1, Recombinant Human DLL4 (delta-like protein 4) (human, UniProt Q9NR61 27-524)
T1 construct: also called rHuman DLL4; Delta-like 4
Test: ELISA, DLL4 coated on plate, Fab at 100 nM
metric.name: ELISA Signal-blank (100 nM Fab)
Number only, please.

Illustrative cases are given below, each with its answer.
>>> number("Fab VH5-51_IGHD5-18*01>3_IGHJ4*01 G100K/G104T G24T/S28R/G35V & V3-4_IGLJ1*01 V91L/S96P T53V (Fab, V domains shown, Fab expressed in E. coli; heavy chain vector adds CH1 with His6 and Flag tags, light chain vector adds lambda CL; also called H:KT TRV & L:LP T53V) VH: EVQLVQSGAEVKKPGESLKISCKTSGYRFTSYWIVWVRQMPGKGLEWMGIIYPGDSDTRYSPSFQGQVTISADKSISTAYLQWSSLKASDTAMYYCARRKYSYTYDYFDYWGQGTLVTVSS VL: QTVVTQEPSFSVSPGGTVTLTCGLSSGSVSTSYYPSWYQQTPGQAPRTLIYSVNTRSSGVPDRFSGSILGNKAALTITGAQADDESDYYCLLYMGPGISYVFGTGTKVTVL")
0.29
>>> number("Fab VH5-51_IGHD5-18*01>3_IGHJ4*01 G100K/G104T G24T/S28R/G35V & V3-4_IGLJ1*01 V91L/S96P S52T (Fab, V domains shown, Fab expressed in E. coli; heavy chain vector adds CH1 with His6 and Flag tags, light chain vector adds lambda CL; also called H:KT TRV & L:LP S52T) VH: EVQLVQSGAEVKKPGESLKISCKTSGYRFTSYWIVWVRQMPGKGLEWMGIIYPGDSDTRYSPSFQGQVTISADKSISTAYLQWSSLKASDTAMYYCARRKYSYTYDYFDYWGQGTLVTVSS VL: QTVVTQEPSFSVSPGGTVTLTCGLSSGSVSTSYYPSWYQQTPGQAPRTLIYTTNTRSSGVPDRFSGSILGNKAALTITGAQADDESDYYCLLYMGPGISYVFGTGTKVTVL")
0.34

In the following, a different binder is considered.
Item Fab VH5-51_IGHD5-18*01>3_IGHJ4*01 G100K/G104T G24T/S28R/G35V & V3-4_IGLJ1*01 V91L/S96P S52K (Fab, V domains shown, Fab expressed in E. coli; heavy chain vector adds CH1 with His6 and Flag tags, light chain vector adds lambda CL; also called H:KT TRV & L:LP S52K) VH: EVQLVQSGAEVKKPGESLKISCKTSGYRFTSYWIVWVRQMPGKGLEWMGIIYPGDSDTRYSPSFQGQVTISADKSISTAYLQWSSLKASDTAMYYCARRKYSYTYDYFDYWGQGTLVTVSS VL: QTVVTQEPSFSVSPGGTVTLTCGLSSGSVSTSYYPSWYQQTPGQAPRTLIYKTNTRSSGVPDRFSGSILGNKAALTITGAQADDESDYYCLLYMGPGISYVFGTGTKVTVL has what recorded ELISA Signal-blank (100 nM Fab)?
0.32

Origin of values: patent US20120316071A1
